B1: tRNA (parent)
chain: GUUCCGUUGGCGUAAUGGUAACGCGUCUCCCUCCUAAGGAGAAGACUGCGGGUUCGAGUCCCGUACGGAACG

Variants of: B1
Test: yeast fitness, log relative to wild type (ln ratio); higher = fitter; tRNA-Arg(CCU), competitive growth, 37 C, 1 M NaCl
yeast fitness (ln) for assorted variants
No unit in the answer, please; the number alone is enough.

Check out these entries, answers already filled in.
U2G G6U C46U C66A A69G C71U
-0.185
G1A G6A C27U A43C C66U A70G C71U
-0.323
U2G G6A A69G A70U
-0.265
U2G C27U C66A C71U
-0.148

The variant identified as U2C G6U C27U C46U A70G registered its yeast fitness (ln) at -0.0953

The variant identified as G6U A43C C66A A70G C71U registered its yeast fitness (ln) at -0.177

The variant identified as A43C C46U A70G C71U registered its yeast fitness (ln) at -0.168

The variant identified as C27U A43C C66A A70G C71U registered its yeast fitness (ln) at -0.234

The variant identified as U2G G6A C46U A69G A70U C71U registered its yeast fitness (ln) at -0.272

The variant identified as G1A U2G G6A C46U C66U C71U registered its yeast fitness (ln) at -0.301

The variant identified as U2C G6U C27U A43C A69G C71U registered its yeast fitness (ln) at -0.343

The variant identified as G1A U2C A43C A69G A70U registered its yeast fitness (ln) at -0.0414

The variant identified as U2G A43C A69G A70U registered its yeast fitness (ln) at -0.023
